target: ERβ (Homo sapiens (Human)); assay: Cell-based ERβ luminescence (luciferase reporter) agonist assay
Sequence (Q92731 whole entry): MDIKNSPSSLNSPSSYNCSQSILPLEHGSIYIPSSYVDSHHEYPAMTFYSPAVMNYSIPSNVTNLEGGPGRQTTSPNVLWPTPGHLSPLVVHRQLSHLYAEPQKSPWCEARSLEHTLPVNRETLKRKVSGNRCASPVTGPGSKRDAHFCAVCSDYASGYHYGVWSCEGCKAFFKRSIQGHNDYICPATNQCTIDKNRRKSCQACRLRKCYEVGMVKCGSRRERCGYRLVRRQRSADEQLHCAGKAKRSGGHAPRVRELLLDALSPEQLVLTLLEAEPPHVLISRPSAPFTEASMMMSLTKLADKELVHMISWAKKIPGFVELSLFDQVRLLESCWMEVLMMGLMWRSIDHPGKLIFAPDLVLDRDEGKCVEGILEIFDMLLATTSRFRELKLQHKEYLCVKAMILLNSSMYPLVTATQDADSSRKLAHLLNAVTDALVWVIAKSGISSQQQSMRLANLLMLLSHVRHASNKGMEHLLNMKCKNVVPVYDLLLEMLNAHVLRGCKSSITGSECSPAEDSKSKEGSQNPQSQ
The compounds listed here are annotated with their pIC50.
Remember the convention: pIC50 equals -log10 of concentration in molar.

Known pIC50 results, listed for orientation:
# input Read off the recorded pIC50 for C[C@]12CC[C@@H]3c4ccc(O)cc4CC[C@H]3[C@@H]1CC=C2CO
# output 8.17

# input Read off the recorded pIC50 for CC1C[C@H](C)C2(CC[C@H]3[C@@H]4CCc5cc(O)ccc5[C@H]4CC[C@@]32C)O1 (stereo partly drawn)
# output 6.95

# input Read off the recorded pIC50 for CC[C@H](C)C1=CC[C@H]2[C@@H]3CCc4cc(O)ccc4[C@H]3CC[C@]12C
# output 7.06

# input Read off the recorded pIC50 for C[C@@H](CCO)C1=CC[C@H]2[C@@H]3CCc4cc(O)ccc4[C@H]3CC[C@]12C
# output 6.97

# input Read off the recorded pIC50 for CCCOC(=O)C1CC[C@H]2[C@@H]3CCc4cc(O)ccc4[C@H]3CC[C@]12C (stereo partly drawn)
# output 8.01

Further cases:
# input Read off the recorded pIC50 for OC[C@H]1CCC[C@@H](c2ccc(O)cc2)CC1 (racemic)
# output 8.27
